# Subject of test: IDH1 (R132H) (Homo sapiens, UniProt O75874, R132H)
# Sequence (O75874 whole entry R132H): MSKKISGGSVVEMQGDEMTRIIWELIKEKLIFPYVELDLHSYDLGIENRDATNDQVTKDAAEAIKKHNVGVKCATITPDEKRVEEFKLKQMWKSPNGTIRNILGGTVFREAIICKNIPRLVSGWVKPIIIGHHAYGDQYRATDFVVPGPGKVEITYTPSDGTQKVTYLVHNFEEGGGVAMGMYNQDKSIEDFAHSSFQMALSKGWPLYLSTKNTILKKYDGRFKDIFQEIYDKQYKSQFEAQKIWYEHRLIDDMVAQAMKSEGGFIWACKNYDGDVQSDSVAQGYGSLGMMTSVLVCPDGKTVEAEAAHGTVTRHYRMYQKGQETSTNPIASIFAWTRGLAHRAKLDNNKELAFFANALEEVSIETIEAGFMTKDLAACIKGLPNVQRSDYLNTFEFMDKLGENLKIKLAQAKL
# Method: IDH enzyme assay, NADPH depletion by diaphorase/resazurin coupled detection
# Assay type: biochemical
# Measurement parameters: pre-incubated with enzyme for 1 h at room temperature; 1500 μM a-Ketoglutarate+15 μM NADPH; 10-dose, 3-fold dilution from 10 μM; read-out: Compound IC50 (nM) IDH1 (R132H)
Measure: IC50 (nM)

I. C=CC(=O)Nc1ccc(NC(=O)c2nn(Cc3ccc(F)cc3)c3c2CN(C(=O)c2ccc[nH]2)C[C@@H]3C)cc1 [ISO-2-25-S]
II. C=CC(=O)Nc1cc(NC(=O)c2nn(Cc3ccc(F)cc3)c3c2CN(C(=O)c2ccc[nH]2)C[C@@H]3C)ccc1OC [ISO-2-30-S]
III. C=CC(=O)Nc1cccc(Cn2nc(C(=O)Nc3cccc(C)c3)c3c2C(C)CN(C(=O)c2ccc[nH]2)C3)c1 (stereo not shown) [ISO-2-27]
Please rank everything listed above by IC50, with the minimum value first. Ranked list of labels, please, in the requested order. III, II, I
(III: 25 nM, II: 839 nM, I: 1360 nM)
